Parameter: binding signal. Scope: all listed entries.
# experimental_target: T1, UNK ZnF1-6 (called full-length) (human, UniProt Q9C0B0 30-357)
# T1 sequence: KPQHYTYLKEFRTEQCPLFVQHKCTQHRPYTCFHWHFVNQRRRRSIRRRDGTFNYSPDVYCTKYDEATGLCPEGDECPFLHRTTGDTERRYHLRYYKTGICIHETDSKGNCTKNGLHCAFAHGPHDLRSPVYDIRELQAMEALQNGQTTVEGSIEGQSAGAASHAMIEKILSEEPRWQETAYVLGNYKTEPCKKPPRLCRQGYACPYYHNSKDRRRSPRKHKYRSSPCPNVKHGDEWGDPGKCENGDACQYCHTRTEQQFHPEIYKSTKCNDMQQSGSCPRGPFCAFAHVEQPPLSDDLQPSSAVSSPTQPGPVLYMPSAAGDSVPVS
# experiment_description: nsRBNS (natural sequence RNA bind-n-seq); RBNS binding buffer (assumed for nsRBNS): 25 mM Tris pH 7.5, 150 mM KCl, 3 mM MgCl2, 0.01% Triton X-100, 500 ug/ml BSA, 20 U/ml SUPERase-In, 4 C; UNK is unkempt and MSI1 is Musashi-1; names of the RNAs are library labels; protein concentration not given here; high values mean tight binding
Over roughly 5,800 sequences, “enrichment r” has its median near 0.68; the highest 2% begin near 11. For the sample, the highest values were picked, then their nearest neighbours and some sequences at random.

Some solved cases for reference:
binder="chr7:123541454:123541562:-|3pUTR|ENSG00000128609|unk|FALSE|unique (ssRNA) RNA: GGGAGUUCUACAGUCCGACGAUCUCCAUAGUGUCAUUUUAUUUUAGUCAUUAUUGAAUUAUACCAUUUACUCUGUUUUCUUAUAGUCUUAAUUUUAUUAUAUUUUGUUGUUACUGUAUUAUAUUUGAAAACCUUCAAAUUAGACAACAGAGGAUUGAGCAUCA" result="150 enrichment R"
binder="chr3:160434497:160434598:+|3pUTR|ENSG00000113810|msi1|FALSE|bound_elsewhere (ssRNA) RNA: GGGAGUUCUACAGUCCGACGAUCUUUAUGAUAGGUUUAUCCGGGUACUAAAUGCAUUUCAACUUGAUAGUUUCAACUUAUGAUAGGUUUACCAGGAUGUAGUCCCACUGUUGAGGAGCAUCUAUUUAGGGGUUAAUUACUUUACAACAGAGGAUUGAGCAUCA" result="2.3 enrichment R"
binder="ENSG00000033178:stop:overlap|stop_codon|ENSG00000033178|stop_codon|NA|stop_codon (ssRNA) RNA: GGGAGUUCUACAGUCCGACGAUCCUAUUGAAAUUUAUGGCUGUCCGAAUAUUUGUUUGUUAAUACAUAAGUGUUCUGUAUAUUAGUAUUCUCUUAUCCUUCACAUCCAGCUUUGCUACUCUGUGGCAUUAGACAACUUUUUUCCAACAGAGGAUUGAGCAUCA" result="0.919 enrichment R"
binder="ENSG00000136451:be:win_2501|3pUTR|ENSG00000136451|bound_else_gene|NA|bound_elsewhere_windowed (ssRNA) RNA: GGGAGUUCUACAGUCCGACGAUCUCCCAAUCAGAGCCUGUUGAUAUUACAACAGGGACAGAUGUGUUAGUUGCUCACUAGAGUUUAUGUCUUAUAUUAAAUUGUAUACAGUUUUUAUUCUAACCACUAACUAGGUAGUGUAUGCAACAGAGGAUUGAGCAUCA" result="12.3 enrichment R"
binder="chr5:159157431:159157536:-|3pUTR|ENSG00000145860|unk|FALSE|bound_elsewhere (ssRNA) RNA: GGGAGUUCUACAGUCCGACGAUCCAAAAAGUGUUUUUCAGACCUCGGUAUUCCUAAUGUGGGAUGUGACUUUAUUUUAUUUUUAGUAGCAAAUUUGGAUGUAGACUGACAGACAUAGCUGAAUGUCUUAAUAAAUUUAAAUUUCAACAGAGGAUUGAGCAUCA" result="11.8 enrichment R"
binder="chr1:42176760:42176861:-|3pUTR|ENSG00000198815|msi1|total|mutant (ssRNA) RNA: GGGAGUUCUACAGUCCGACGAUCGUCGCUCAGAUGUCCUUUGAAGUGGGAGGGAAUCAAUCCGGGGAUAAUUUCAAAUGGAACCGAGUAUUUUGAUAUUGUUCAUUCAGAGGGUGAUGUGUACAUAUCUAUAUUGUAUAUAUGCAACAGAGGAUUGAGCAUCA" result="1.09 enrichment R"

Let us move to another entry and its binding signal.
-- ask State its binding signal: ENSG00000136451:be:win_2551|3pUTR|ENSG00000136451|bound_else_gene|NA|bound_elsewhere_windowed (ssRNA) RNA: GGGAGUUCUACAGUCCGACGAUCUCACUAGAGUUUAUGUCUUAUAUUAAAUUGUAUACAGUUUUUAUUCUAACCACUAACUAGGUAGUGUAUGCCCCUUCAGAACAUGCAGAGUGUAUCUUUUUUUAAAUUUCUCCUUCCGUUCAACAGAGGAUUGAGCAUCA
-- reply 11.6 enrichment R
